# Test system: Mus musculus
# method-notes: Neurotoxicity against ip dosed mouse CF1 albino assessed as minimal motor impairment after 0.5 hrs by rotord test
# Type: toxicity, organism-based
# experimental-conditions: in vivo
observed-property: Activity (mg/kg)
Answer in mg/kg, number only, no unit symbol.

structure_smiles=O=C(N/N=C/c1ccc([N+](=O)[O-])cc1)c1sc(C(=O)N/N=C/c2ccc([N+](=O)[O-])cc2)c(OCc2ccccc2)c1OCc1ccccc1 data_value=100

Consider the record given below.
Qu. Quick one: Activity for `CCCOc1c(C(=O)N/N=C2/C(=O)Nc3ccccc32)sc(C(=O)N/N=C2/C(=O)Nc3ccccc32)c1OCCC` ?
Ans. 100
